# subject-of-test: T1, full-length human OX40 expressed on HuT78 cells (HuT78/OX40) (human, UniProt P43489 29-277)
# T1 sequence: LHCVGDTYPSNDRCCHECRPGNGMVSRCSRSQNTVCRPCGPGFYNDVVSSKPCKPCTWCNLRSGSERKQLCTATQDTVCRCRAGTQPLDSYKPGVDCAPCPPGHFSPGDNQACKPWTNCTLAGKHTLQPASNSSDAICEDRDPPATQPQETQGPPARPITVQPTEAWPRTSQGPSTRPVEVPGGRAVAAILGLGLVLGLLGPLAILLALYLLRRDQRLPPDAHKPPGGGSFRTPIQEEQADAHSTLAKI
# assay-text: flow cytometry on live HuT78/OX40 cells; Mean
Reported EC50 is given for each of the following binders.
Kindly provide the numeric value in µg/mL only, without the unit symbol.

445-1 (antibody, V domains shown) VH: QVQLVQSGAEVKKPGSSVKVSCKASGYKFTSYIIHWVRQAPGQGLEWMGYINPYNDGTRYNQKFQGRVTLTSDKSTSTAYMELSSLRSEDTAVYYCARGYYGSSYAMDYWGQGTTVTVSS VL: DIQMTQSPSSLSASVGDRVTITCSASQGISNYLNWYQQKPGKAIKLLIYDTSTLYSGVPSRFSGSGSGTDYTLTISSLQPEDFATYYCQQYSKLPYTFGGGTKVEIK | 0.285
445-2 (antibody, V domains shown) VH: QVQLVQSGAEVKKPGSSVKVSCKASGYKFTSYIIHWVRQAPGQGLEWMGYINPYNEGTRYAQKFQGRVTLTADKSTSTAYMELSSLRSEDTAVYYCARGYYGSSYAMDYWGQGTTVTVSS VL: DIQMTQSPSSLSASVGDRVTITCSASQGISNYLNWYQQKPGKAIKLLIYDASTLYSGVPSRFSGSGSGTDFTLTISSLQPEDFATYYCQQYSKLPYTFGGGTKVEIK | 0.343

Okay, next one:
**Query** I'd like to know its EC50. The binder in question is 445-3 (antibody, V domains shown) VH: QVQLVQSGAEVKKPGSSVKVSCKASGYKFTSYIIHWVRQAPGQGLEWMGYINPYNEGTRYNQKFQGRVTLTADKSTSTAYMELSSLRSEDTAVYYCARGYYGSSYAMDYWGQGTTVTVSS VL: DIQMTQSPSSLSASVGDRVTITCRASQGISNYLNWYQQKPDGAIKLLIYDASTLYSGVPSRFSGSGSGTDFTLTISSLQPEDFATYYCQQYSKLPYTFGGGTKVEIK
**Result** 0.328
